meta.source: patent US20260125454A1

- SYSTEM NAME: T1, Biotin-huCGRPaSA (human, not fully specified; biotin (position not given))
- T1 construct: exact construct ('aSA') not explained; also called Biotin CGRPaSA; full-length (1-37) CGRP
- T1 peptide: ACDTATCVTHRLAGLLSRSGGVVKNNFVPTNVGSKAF
- EXPERIMENTAL DETAILS: ELISA, supernatant; relative to chimeric C245
- Method: Biotin CGRPaSA was diluted with PBS (Hyclone) to 1.0 μg/mL, and the dilution was added to a microplate at 100 μL/well. The plate was let stand in an incubator at 37° C. and coated for 90 min and then washed, and 2% BSA was added to the plate at 200 μL/well. […] Finally, a 2 M hydrochloric acid solution was added at 100 μL/well to stop the reaction while avoiding bubbles, and the plates were read on a microplate reader within 10 min (wavelength: 450/620 nm).
Relative binding activity, % reference
Kindly provide the numeric value in % only, without the unit symbol.

>  <BINDER>
hu13 (antibody, V domains shown, 1B2 HC-1/3H10 LC2-2) VH: QVQLVQSGAEVKKPGASVKVSCKASGYTFTDYNMHWVRQAPGQGLEWMGYIFPYNGVAVYNRKFRSRVTLTIDTSSSTAYMELRSLRSDDTAVYYCAREGLGGYWGQGTLVTVSS VL: DIQLTQSPSSLSASVGDRVTITCKASQNIDYGGYSYMNWYQQKPGKAPKVLIYSVFNLESGVPSRFSGSGSGTDFTLTISSLQPEDFATYYCQQSNEAPYTFGQGTKLEIK

>  <Relative binding activity, % / %>
27

$$$$

Could you now look at the following binder, please?
Q: Can you share its Relative binding activity, %? I mean this binder: hu46 (antibody, V domains shown, 1F5 HC-2/1F5 LC1-3) VH: QVQLVQSGAEVKKPGASVKVSCKASGYTFTDFNMHWVRQAPGQRLEWMGYIYPYNGDVVYNQNFTNRVTLTVDTSSSTAYMELSSLRSEDTAVYYCAREGLGGYWGQGTLVTVSS VL: DIVLTQSPASLAVSPGQRATITCKASQNIDFDGYAYMNWYQQKPGQPPKVLIYSVFNLESGVPARFSGSGSGTDFTLTINPVEADDTANYYCQQSHEVPYTFGQGTKLEIK
Ans: 25
